experiment: Henry solubility constant Hcp at 298.15 K (mol/(m3 Pa)); details: reference: Warner et al. (1980)
Catalogue of Henry solubility constant Hcp values
Lab note: jot down the number only; don't add units.

The cases that follow already have their Henry solubility constant Hcp on record.
COMPOUND	MEASURED_METRIC	ASSAY_RESULT
ClC(Cl)=C(Cl)C(Cl)=C(Cl)Cl	Henry solubility constant Hcp	0.00096
O=[N+]([O-])c1ccccc1	Henry solubility constant Hcp	0.41
ClC1=C(Cl)[C@]2(Cl)[C@@H]3[C@@H]4C[C@@H]([C@H]5O[C@@H]45)[C@@H]3[C@@]1(Cl)C2(Cl)Cl	Henry solubility constant Hcp	0.17
ClC(Cl)(Cl)Cl	Henry solubility constant Hcp	0.00033

Next compound, Henry solubility constant Hcp to be filled in.
Looking up CC(Cl)CCl (stereo not given) , I see its Henry solubility constant Hcp listed as 0.0035
